Tested on: LXRa homodimer (NR concentration 270 nM)
run_description: PBM binding z-score (relative to random genomic background probes); higher = stronger binding; sequences stand for … in GC…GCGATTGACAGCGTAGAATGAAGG
Classification field: enter 1 for PBM binding z-score values not below 0.06, -1 for values below it.

Worked cases, answers included:
INSERT INTO measurements (primary_sequence, answer_label) VALUES
  ('ATATGTAGGTTATCGGGTCATTCAATTTGCGCAT', 1),
  ('CCTGCTAGGTCTTGGTCAGCTAATCTACAGTATG', -1),
  ('CAAACTAGGTCACCGCAAGGTCAAAGTCCGCATG', 1);

Ask | Has GCTAGTTGGTCAGTGAAAGGTCACACACCGGTCG a recorded PBM binding z-score greater than or equal to 0.06?
Reply | 1

Ask | Has TAGCCTAGGTCATTCAGTGGCCAGTATAGAAAGC a recorded PBM binding z-score greater than or equal to 0.06?
Reply | 1

Ask | Has ACAGACAGGTGAGTGAAGGTAACTCTGCTGGACG a recorded PBM binding z-score greater than or equal to 0.06?
Reply | -1

Ask | Has TCTTGTAGATCAGCAGGTTAAGAAGGCTGGCCAA a recorded PBM binding z-score greater than or equal to 0.06?
Reply | -1

Ask | Has CATACAGGGTCAGCTAGGCTAGAGTAGGGACGGC a recorded PBM binding z-score greater than or equal to 0.06?
Reply | -1

====

Readings of PBM binding z-score for the listed sequences
System: RARa homodimer (NR concentration 270 nM)
run_description: PBM binding z-score (relative to random genomic background probes); higher = stronger binding; sequences stand for … in GC…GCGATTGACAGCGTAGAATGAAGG
Please reply with the value in numeric form only.

// below: answered sequences
INSERT INTO assay_data (primary_sequence, assay_value) VALUES
  ('ATCGCAAGGTCGAAGGTGAGTATACCCACCCGAA', -0.621),
  ('ACAGACAGGTGATGAAGGTAACTCGGGCTATCAT', 0.291),
  ('TCTTGTAGAGCAACAGGAGGTTAAGAAAGATCGA', -0.541),
  ('TCTCGTTGGTCAAAGGTCACACACTCGAAATGCG', 3.39),
  ('TCGAGTAGGTTACGAATGGGGCATTCAGCTTTCT', -0.789);

Ask | Param readout= PBM binding z-score; system= RARa homodimer (NR concentration 270 nM); entry= ACTAGCAGGCCCAGTTTGGGTCACTCAAACAAAG ; returns value.
Reply | -0.613

Ask | Param readout= PBM binding z-score; system= RARa homodimer (NR concentration 270 nM); entry= AGAACGAGGGCACGCTTAGTTGATAGCAGAGTAG ; returns value.
Reply | -0.203

Ask | Param readout= PBM binding z-score; system= RARa homodimer (NR concentration 270 nM); entry= TCTTGTAGATCAGCAGGTTAATAAAGCTGGCCAA ; returns value.
Reply | 0.0648

Ask | Param readout= PBM binding z-score; system= RARa homodimer (NR concentration 270 nM); entry= CATACAGGGTCAGTTAGGCCAGAGTAGGGACGGC ; returns value.
Reply | 0.791

Ask | Param readout= PBM binding z-score; system= RARa homodimer (NR concentration 270 nM); entry= TTACCAAGGGGAAGGTCGTTGATCCCTCTGTAGA ; returns value.
Reply | -0.541

Ask | Param readout= PBM binding z-score; system= RARa homodimer (NR concentration 270 nM); entry= AGAATGAGGTTATACGTTGATCAGGGAAGAAAGT ; returns value.
Reply | 0.556

Ask | Param readout= PBM binding z-score; system= RARa homodimer (NR concentration 270 nM); entry= CGATCGAGGGCATGAGTTGATAGCAAATGCCGAT ; returns value.
Reply | -0.984

Ask | Param readout= PBM binding z-score; system= RARa homodimer (NR concentration 270 nM); entry= CCGAGAAGGTTATGGGGCATTCAGGCAACGGTGA ; returns value.
Reply | -0.0567

Ask | Param readout= PBM binding z-score; system= RARa homodimer (NR concentration 270 nM); entry= ACTAGCAGGCCAAGGGTCTCTCAAGATTAGTCCG ; returns value.
Reply | -1.21

Ask | Param readout= PBM binding z-score; system= RARa homodimer (NR concentration 270 nM); entry= ATCGAAAGGTCGACGAGGTGAGTATTCACCGTTT ; returns value.
Reply | -0.0728

Ask | Param readout= PBM binding z-score; system= RARa homodimer (NR concentration 270 nM); entry= ACTATTAGTTGAGACGAGGCCAACCGATAGGTTG ; returns value.
Reply | 0.555

Ask | Param readout= PBM binding z-score; system= RARa homodimer (NR concentration 270 nM); entry= CAAACTAGGTCACGAAAGGTCAAAGACGAATGAC ; returns value.
Reply | 4.46

====

System: THRa:RXRa (NR concentration 90 nM, RXRa partner concentration 90 nM)
run_description: PBM binding z-score (relative to random genomic background probes); higher = stronger binding; sequences stand for … in GC…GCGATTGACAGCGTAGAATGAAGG
Classification field: enter met for PBM binding z-score values not below 2, not met for values below it.

Worked cases, answers included:
INSERT INTO measurements (primary_sequence, target_desc, answer_label) VALUES
  ('GCGGCTGGGGCAAAGCAGGTTACCATAAGGTTGG', 'THRa:RXRa (NR concentration 90 nM, RXRa partner concentration 90 nM)', 'met'),
  ('CGTCCAAGGTCAATGCTCGGTCAGTGAAAGCATT', 'THRa:RXRa (NR concentration 90 nM, RXRa partner concentration 90 nM)', 'met'),
  ('CTCGAAAGGTTGGTTGAGGTGAGTATACGGATAA', 'THRa:RXRa (NR concentration 90 nM, RXRa partner concentration 90 nM)', 'met'),
  ('CCTGCTAGGTCATTGGTCAGCTAAAGCAGCTCGC', 'THRa:RXRa (NR concentration 90 nM, RXRa partner concentration 90 nM)', 'met'),
  ('CTAACGAGGGCATGAGTTGATAGCAAATGCCGAT', 'THRa:RXRa (NR concentration 90 nM, RXRa partner concentration 90 nM)', 'not met'),
  ('ATCTCTAGTTAAAGTTCAGTGAAAGATCGATAGA', 'THRa:RXRa (NR concentration 90 nM, RXRa partner concentration 90 nM)', 'not met');

Ask | Has CAAACTAGGTCAAGAAAGGTCAAAGTCGAATGAC a recorded PBM binding z-score greater than or equal to 2?
Reply | met

====

Readings of PBM binding z-score for the listed sequences
Test system: PXR homodimer (NR concentration 270 nM)
run_description: PBM binding z-score (relative to random genomic background probes); higher = stronger binding; sequences stand for … in GC…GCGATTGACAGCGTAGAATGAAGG
Please reply with the value in numeric form only.

// below: answered sequences
INSERT INTO results (primary_sequence, target_desc, assay_value) VALUES
  ('TATACAGGGTCAAAGGCCAGTGTACGAATGTCGA', 'PXR homodimer (NR concentration 270 nM)', 0.622),
  ('ATCTAAAGGTCGTGAGGTGAGTATACAGAAAGGC', 'PXR homodimer (NR concentration 270 nM)', 0.645),
  ('TCTTGTAGATTAAGCAGGTTAAGAAAGCCTGAGT', 'PXR homodimer (NR concentration 270 nM)', 0.0794);

Ask | Need PBM binding z-score of CCTTACGGGTCACTCCAGGTTATAGCCTCGGAGT , thanks.
Reply | 0.0423

Ask | Need PBM binding z-score of ATCGAAAGGTCGAGGCGAGTATAGAGAAAGGGAA , thanks.
Reply | 0.0659

Ask | Need PBM binding z-score of GGAACGAGGGCACGTTGATAGCAGAGTTTGATGG , thanks.
Reply | -0.125

Ask | Need PBM binding z-score of CCAACTAGGTCACAGAGGTCAAAGTCCGTGCGTA , thanks.
Reply | 11.9

Ask | Need PBM binding z-score of TCATATAGGTAAAAGATGAAAGTCGGTGTGGTAA , thanks.
Reply | 0.283

====

System: RARb:RXRa (NR concentration 270 nM, RXRa partner concentration 90 nM)
run_description: PBM binding z-score (relative to random genomic background probes); higher = stronger binding; sequences stand for … in GC…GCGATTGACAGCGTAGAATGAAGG
Readings of PBM binding z-score for the listed sequences
Please reply with the value in numeric form only.

// below: answered sequences
INSERT INTO measurements (primary_sequence, assay_value) VALUES
  ('ATATGTAGGTTGGCTGGGGTCATTCAGACTAGGC', 2.62),
  ('ACGTACGGGTCAACGAGGTTATAGCACGCGTATA', 4.28),
  ('ACTCGGAGCACAAAGGTCAGAGCTACGCCAGTGA', 4.29),
  ('CCGACTGGGGCAGTAAGGTTACCATACCATCCGG', 1.34),
  ('CCTATTAGTTGACCCTAAGGGCAACCGAAGCTCG', 2.93);

Ask | Need PBM binding z-score of AGAATGAGGTTAAGACCAGGGAAACAGAATACAT , thanks.
Reply | 1.85

Ask | Need PBM binding z-score of TCGAGTAGGTTAGGGGCATTCTGAATGGCGTCGA , thanks.
Reply | 0.807

Ask | Need PBM binding z-score of CGTAGTTGGTCAAGGTCACACACGCTATAGGTAC , thanks.
Reply | 4.18

Ask | Need PBM binding z-score of CCTGCTAGGTCATGGTCAGCTATTCTACAGTATG , thanks.
Reply | 3.95

Reference for the values: the supplement of paper PMC6555819
